Where do these numbers come from? They come from the supplement of paper PMC10065799.

Entries annotated with measured phosphorylation enrichment
- Tested on: Fer (mouse)
- assay-method-text: phosphorylation enrichment, bacterial display (enrichment ratio); higher = better substrate or ligand; peptides without Tyr show the background;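 further: 11-residue human phosphosite peptides and single-mutation variants displayed on the E. coli surface, counted by deep sequencing, each peptide's frequency after selection divided by its frequency in the unselected input library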;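 further: frequency after pTyr selection over input frequency; kinase dosed for 20-30% of maximal phosphorylation in three min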

residue-string	phosphorylation enrichment
EEHIPCTHMNG [INSR_Y1361_Y1361C]	0.612
PAIERYVVVCK [RHO_Y136_L131P]	0.473
AHARMYGVLPW [PLP1_Y207_D203H]	0.402
KLSFSYGRALQ [ALDOB_Y302]	0.413
AGIENYTSRFG [NKD2_Y256]	0.383
ESMQSYDLDYP [UNC13B_Y243_D238E]	0.495
ESVNTYLQTSP [NAT1_Y208_M205V]	0.49
SSAAGYACLAF [MVD_Y131_YF]	0.493
GGQVFHNSEYG [FLT4_Y1333_Y1333H]	0.349
WNDLDYVDSRR [GAA_Y407_M408V]	0.45
SISLKYEGRVY [ABL1_Y167_R166K]	0.499
LIHTKYPQLLP [AHCY_Y143]	0.395
WKKKIYEESST [MOCS2_Y170_E168K]	0.449
DFEGLYQEGGG [TMEM159_Y159_E154D]	0.64
CKLCQYYLDHL [ATRX_Y1849_Y1847C]	0.423
DKATEYIQYMR [MAX_Y70]	0.394
CTTIYYNYMCN [TP53_Y234_H233Y]	2.86
NCFKFYMSDDI [ATRX_Y204_YF]	0.521
FEPDAYFDLDQ [ELP5_Y302_D303Y_YF]	0.648
DLQDEYDFKRK [STAT1_Y170_C174R]	0.463
SEEVTYATLTF [CLEC12B_Y7]	2.19

---

- Tested on: c-Abl (mouse)
- assay-method-text: phosphorylation enrichment, bacterial display (enrichment ratio); higher = better substrate or ligand; peptides without Tyr show the background
Label rule, in plain words: phosphorylation enrichment of 0.7 and up is criterion met, under 0.7 is criterion not met.

residue-string	group
PQGVGYPPQPQ [EP300_Y2219_Q2223P]	criterion met
KLKNAYEESLE [MYH7_Y1488]	criterion met
AERKLYRNVML [ZNF569_Y33_Q29E]	criterion not met
ASKEPYFVRCI [MYO1D_Y585_YF]	criterion met
AFPVSYSSSGA [RET_Y687]	criterion not met
TEQDPYNSIVR [MMUT_Y364_N366S]	criterion not met
EVEPTYVVLFD [ERCC4_Y577_R576T_YF]	criterion met
NDDDVYRSLEE [VAV2_Y142]	criterion met
RHTRSYDYMEG [FGF7_Y56]	criterion not met
QQPGPYDRPGA [HNRNPH2_Y210_R206Q]	criterion not met
GRKTLYSFFSP [UNG_Y8_Q4R]	criterion not met
RLQAAYNLVKR [PFKM_Y103_R100Q]	criterion met
GLDGSYLLRDS [SH2D1A_Y29]	criterion not met
IKAGAYDFPSL [CAMK2A_Y230_P235L]	criterion not met
VRFMEYETQVK [TARDBP_Y155_T153M]	criterion met
WDLPEYSYKDP [ITGA3_Y237_S235P]	criterion not met
KACKHYLTTRT [ZBTB5_Y118]	criterion met
MKKMHYVDPDR [ST3GAL5_Y99_H104R]	criterion not met
DVVKDYAFVHM [RBM14_Y114]	criterion not met
LLDGEYFTLQI [TP53_Y327_P322L]	criterion met
RSRSPYSPVFR [CDK13_Y399_L403F]	criterion not met
KIKGWYEKCEP [KRT26_Y119]	criterion met
ADLLVYIKALN [HPRT1_Y81_D80V]	criterion met
ESMQSYDLDYP [UNC13B_Y243_D238E]	criterion met
PHMQTYEVDPN [SDHB_Y61_L65P]	criterion met
RGDTVYTVNRM [KBTBD13_Y404]	criterion met
LLIVEYAKYGS [RET_Y806]	criterion met
GREAEYSEKHG [EPHB4_Y574_D576E]	criterion not met
REVKAYGAGLL [TH_Y419_G414R]	criterion not met
QKTGDYYDLYG [PTPN11_Y62_N58K]	criterion met
DAVCFYRMENA [NPHS2_Y195_I192V_YF]	criterion met
ELELLYLDRNS [NYX_Y284]	criterion not met
LFIDSYEKDVA [PGM1_Y521_YF]	criterion met
LFCLHYFHRTF [SRD5A2_Y91_V89L]	criterion met
IMITDYLPLFR [INSR_Y87_L89P]	criterion met
GYIISYREEEQ	criterion met
AGQEGYDRLRP [RAC1_Y64_D63G]	criterion not met
AFAEVYEGQVS [ALK_Y1131_G1128A]	criterion met
SWDKRYCEAGC [ITGA2B_Y197_F202C]	criterion met
NELTYYCYKKD [CD59_Y87_C89Y]	criterion met
AGLVQYFMEHH [PTPN11_Y80_E76G_YF]	criterion met
FTGDIYSNSNL [LZTR1_Y141_YF]	criterion met
LFCVHYFHRTF [SRD5A2_Y91]	criterion met
QELRRYLKSGV [MICA_Y194]	criterion not met
VGRVGYVSGWG [HP_Y280]	criterion met
EFQLPYFNMVP [BMPR1A_Y457_YF]	criterion not met
FFRKFCNKSED [RYR1_Y4864_Y4864C]	criterion not met
EATKGHLDDPT [G6PD_Y322_Y322H]	criterion met
NDHHFYLEGTL [ALDOB_Y223_V222F]	criterion not met
